Tested on: intestinal flora
ASSAY_SUMMARY: Effects of administration routes on the diversity of intestinal flora in mice (16S rDNA sequencing, OTU)
Assay type: in vivo
CONDITIONS_USED: C57BL/6 mice, feces; in combination with recombinant human HAase for subcutaneous administration, five consecutive days; D14
Description: 12 SPF grade C57BL/6 mice were used for each antibiotic mode, and divided into two groups, each having 6 mice. The two groups include an oral administration group, and a subcutaneous administration group combined with recombinant human HAase. A blank control group including 6 mice was also set. […] After DNA extraction, PCR amplification and gene sequencing, the changes of intestinal bacterial diversity in each group of mice were analyzed. […]
EXPERIMENTAL_ENDPOINT: Relative abundance of OUT (operational taxonomic units) (%)
// return numeric value only (unit: %, not printed)

Find the recorded Relative abundance of OUT (operational taxonomic units) belonging to CC1=C(C(=O)O)N2C(=O)[C@@H](NC(=O)[C@H](N)C3=CCC=CC3)[C@H]2SC1 and report it. 48.7

What measured Relative abundance of OUT (operational taxonomic units) goes with C[C@@H](O)[C@H]1C(=O)N2C(C(=O)O)=C(S[C@@H]3CN[C@H](C(=O)Nc4cccc(C(=O)O)c4)C3)[C@H](C)[C@H]12 ? 39.3

Please report the recorded Relative abundance of OUT (operational taxonomic units) for CC(C)(O/N=C(\C(=O)N[C@@H]1C(=O)N2C(C(=O)[O-])=C(C[n+]3ccccc3)CS[C@H]12)c1csc(N)n1)C(=O)O . 51.3

Need Relative abundance of OUT (operational taxonomic units), item CO/N=C(\C(=O)N[C@@H]1C(=O)N2C(C(=O)O)=C(CSc3nc(=O)c(=O)[nH]n3C)CS[C@H]12)c1csc(N)n1 47.1

====

Tested on: intestinal flora
ASSAY_SUMMARY: Effects of administration routes on the diversity of intestinal flora in mice (16S rDNA sequencing, OTU)
Assay type: in vivo
CONDITIONS_USED: C57BL/6 mice, feces; in combination with recombinant human HAase for subcutaneous administration, five consecutive days; D2
Would you mind telling me the reported Relative abundance of OUT (operational taxonomic units) of each entry?

# query: Relative abundance of OUT (operational taxonomic units) of entry CC(C)(O/N=C(\C(=O)N[C@@H]1C(=O)N2C(C(=O)[O-])=C(C[n+]3ccccc3)CS[C@H]12)c1csc(N)n1)C(=O)O 34.0%

Would you kindly share the measured Relative abundance of OUT (operational taxonomic units) for CO/N=C(\C(=O)N[C@@H]1C(=O)N2C(C(=O)O)=C(CSc3nc(=O)c(=O)[nH]n3C)CS[C@H]12)c1csc(N)n1 ? 28.8%

Look up Relative abundance of OUT (operational taxonomic units): CC1=C(C(=O)O)N2C(=O)[C@@H](NC(=O)[C@H](N)C3=CCC=CC3)[C@H]2SC1 37.2%

Sample C[C@@H](O)[C@H]1C(=O)N2C(C(=O)O)=C(S[C@@H]3CN[C@H](C(=O)Nc4cccc(C(=O)O)c4)C3)[C@H](C)[C@H]12 — what was its Relative abundance of OUT (operational taxonomic units)? 30.9%

====

Tested on: intestinal flora
ASSAY_SUMMARY: Effects of administration routes on the diversity of intestinal flora in mice (16S rDNA sequencing, OTU)
Type: in vivo
CONDITIONS_USED: C57BL/6 mice, feces; oral administration for five consecutive days; D14
EXPERIMENTAL_ENDPOINT: Relative abundance of OUT (operational taxonomic units) (%)
// return numeric value only (unit: %, not printed)

Looking for the measured Relative abundance of OUT (operational taxonomic units) of CO/N=C(\C(=O)N[C@@H]1C(=O)N2C(C(=O)O)=C(CSc3nc(=O)c(=O)[nH]n3C)CS[C@H]12)c1csc(N)n1 , can you help? 25.7

Relative abundance of OUT (operational taxonomic units) lookup needed for C[C@@H](O)[C@H]1C(=O)N2C(C(=O)O)=C(S[C@@H]3CN[C@H](C(=O)Nc4cccc(C(=O)O)c4)C3)[C@H](C)[C@H]12 , thanks. 24.1

Tell me the measured Relative abundance of OUT (operational taxonomic units) of CC1=C(C(=O)O)N2C(=O)[C@@H](NC(=O)[C@H](N)C3=CCC=CC3)[C@H]2SC1 , please. 31.9

So what does the record say about Relative abundance of OUT (operational taxonomic units) for CC(C)(O/N=C(\C(=O)N[C@@H]1C(=O)N2C(C(=O)[O-])=C(C[n+]3ccccc3)CS[C@H]12)c1csc(N)n1)C(=O)O ? 32.5
